Data credit: PubChem BioAssay AID1259407

# Tested on: CCRIS mutagenicity, Ames/micronucleus/aberration tests
# EXPERIMENT_SUMMARY: CCRIS mutagenicity studies
# EXPERIMENTAL_CONTEXT: Test System: Mouse lymphoma; Strain/Indicator: L5178Y (tk+/tk-); Metabolic Activation: None; Method: Suspension/plate
Active and inactive are the calls of the source. How the calls were made is not given here.
Hi there, use one of these labels in your reply, thanks! active, inactive

[[record]]
structure_notation = "CC/C=C/C=C/C=C/C=C/C=C/OC[C@@H](O)CO"
label_value = "active"

[[record]]
structure_notation = "COc1ccccc1/C=C/C=O"
label_value = "active"

[[record]]
structure_notation = "O=C(/C=N/O)Nc1ccccc1"
label_value = "active"


// next entry
In: Assay outcome for CC(=O)CC(C)(C)O : what was it?
Out: inactive
